- MEASUREMENT TARGET: UniProt:P28704
- ASSAY EXPLANATION: Effective concentration against retinoid receptor isoform (RXR beta) expressed in CV-1 cells
ASSAY METRIC: EC50 (nM)
Give the value in nM but do not write nM after it.

INPUT SMILES | OBSERVED MEASUREMENT
C=C(c1ccc(C(=O)O)cc1)c1cc2c(cc1CC)C(C)(C)CCC2(C)C | 145
CC1(C)CCC(C)(C)c2cc(C(=O)c3ccc(C(=O)O)cc3)c(Br)cc21 | 120
C=C(c1ccc(C(=O)O)cc1)c1cc2c(cc1OC)C(C)(C)CCC2(C)C | 198

stdin: Any idea what its EC50 is? The compound is `C=C(c1ccc(C(=O)O)cc1)c1cc2c(cc1C(C)C)C(C)(C)CCC2(C)C`
stdout: 289

---

- MEASUREMENT TARGET: Retinoic acid receptor RXR-beta (Mus musculus, UniProt P28704)
- Sequence (P28704 whole entry): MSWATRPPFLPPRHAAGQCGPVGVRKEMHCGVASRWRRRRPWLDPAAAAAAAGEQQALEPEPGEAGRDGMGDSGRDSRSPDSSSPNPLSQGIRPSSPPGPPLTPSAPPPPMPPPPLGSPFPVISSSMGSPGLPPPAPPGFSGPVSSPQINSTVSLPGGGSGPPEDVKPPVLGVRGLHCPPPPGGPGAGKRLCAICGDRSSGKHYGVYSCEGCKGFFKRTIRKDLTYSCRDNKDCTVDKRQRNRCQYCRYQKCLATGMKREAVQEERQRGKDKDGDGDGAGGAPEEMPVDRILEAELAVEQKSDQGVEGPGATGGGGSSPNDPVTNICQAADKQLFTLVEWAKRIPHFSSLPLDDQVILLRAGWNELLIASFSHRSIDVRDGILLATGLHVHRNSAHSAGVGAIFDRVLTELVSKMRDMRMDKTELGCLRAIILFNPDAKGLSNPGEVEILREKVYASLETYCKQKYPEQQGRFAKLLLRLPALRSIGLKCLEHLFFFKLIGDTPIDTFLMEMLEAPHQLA
- ASSAY EXPLANATION: Inhibition of [3H]9-cis-RA binding to baculovirus expressed retinoid receptor RXR beta
ASSAY METRIC: Kd (µM)
Give the value in µM but do not write µM after it.

Worked cases, answers included:
INPUT SMILES | MEASUREMENT TARGET | MEASUREMENT UNITS | Kd
C=C(c1ccc(C(=O)O)cc1)c1ccc2c(c1)C(C)(C)CCC2(C)C | Retinoic acid receptor RXR-beta (Mus musculus, UniProt P28704) | µM | 0.199
CC(C)c1cc2c(cc1C(=O)c1ccc(C(=O)O)cc1)C(C)(C)CCC2(C)C | Retinoic acid receptor RXR-beta (Mus musculus, UniProt P28704) | µM | 0.155
CC1(C)CCC(C)(C)c2cc(C(=O)c3ccc(C(=O)O)cc3)c(Br)cc21 | Retinoic acid receptor RXR-beta (Mus musculus, UniProt P28704) | µM | 0.15

stdin: Any idea what its Kd is? The molecule is `C=C(c1ccc(C(=O)O)cc1)c1cc2c(cc1O)C(C)(C)CCC2(C)C`
stdout: 0.822

stdin: Same thing, different molecule: `CC1(C)CCC(C)(C)c2cc(C(=O)c3ccc(C(=O)O)cc3)c(F)cc21`
stdout: 0.902

---

- MEASUREMENT TARGET: Retinoic acid receptor alpha (Homo sapiens)
- Sequence (P10276 whole entry): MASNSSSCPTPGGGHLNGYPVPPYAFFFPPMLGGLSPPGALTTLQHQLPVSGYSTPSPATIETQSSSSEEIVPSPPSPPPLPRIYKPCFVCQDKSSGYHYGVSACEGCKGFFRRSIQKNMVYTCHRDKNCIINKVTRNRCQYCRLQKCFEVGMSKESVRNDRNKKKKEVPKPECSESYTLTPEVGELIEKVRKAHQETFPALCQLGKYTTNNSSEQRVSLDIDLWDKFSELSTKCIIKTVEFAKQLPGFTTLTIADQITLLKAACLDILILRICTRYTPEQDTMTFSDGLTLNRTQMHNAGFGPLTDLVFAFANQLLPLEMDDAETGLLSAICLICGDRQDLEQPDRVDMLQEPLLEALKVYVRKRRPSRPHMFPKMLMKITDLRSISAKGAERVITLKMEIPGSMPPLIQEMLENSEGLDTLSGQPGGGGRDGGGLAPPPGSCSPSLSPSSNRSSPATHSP
- ASSAY EXPLANATION: Inhibition of [3H]ATRA binding to baculovirus expressed retinoid receptor RAR alpha
ASSAY METRIC: Kd

stdin: Any idea what its Kd is? The compound is `C=C(c1ccc(C(=O)O)cc1)c1cc2c(cc1OC)C(C)(C)CCC2(C)C`
stdout: > 1000 nM

---

- MEASUREMENT TARGET: UniProtKB P19793
- Sequence (P19793 whole entry): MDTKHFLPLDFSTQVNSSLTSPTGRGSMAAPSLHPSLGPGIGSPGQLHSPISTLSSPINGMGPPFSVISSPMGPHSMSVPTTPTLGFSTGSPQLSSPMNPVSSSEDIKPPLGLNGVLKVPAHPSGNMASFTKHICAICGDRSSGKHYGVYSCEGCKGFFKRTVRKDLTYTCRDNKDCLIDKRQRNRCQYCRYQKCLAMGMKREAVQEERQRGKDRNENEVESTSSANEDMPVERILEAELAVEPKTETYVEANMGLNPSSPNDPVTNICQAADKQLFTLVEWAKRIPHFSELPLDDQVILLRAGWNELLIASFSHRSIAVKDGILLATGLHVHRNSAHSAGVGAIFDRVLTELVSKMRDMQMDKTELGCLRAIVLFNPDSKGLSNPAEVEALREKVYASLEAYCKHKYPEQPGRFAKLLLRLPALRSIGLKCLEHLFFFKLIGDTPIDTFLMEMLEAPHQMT
ASSAY METRIC: pKd
Units for pKd: none; it is -log10 of a concentration expressed in mol/L.

Worked cases, answers included:
INPUT SMILES | pKd
CC1(C)CCC(C)(C)c2cc(C(=O)c3ccc(C(=O)O)cc3)c(O)cc21 | 6.09
CC1(C)CCC(C)(C)c2cc(C(=O)c3ccc(C(=O)O)cc3)c(F)cc21 | 6.15
CCc1cc2c(cc1C(=O)c1ccc(C(=O)O)cc1)C(C)(C)CCC2(C)C | 6.71

stdin: Any idea what its pKd is? The molecule is `CCCc1cc2c(cc1C(=O)c1ccc(C(=O)O)cc1)C(C)(C)CCC2(C)C`
stdout: 6.57

stdin: Same thing, different molecule: `C=C(c1ccc(C(=O)O)cc1)c1cc2c(cc1CCC)C(C)(C)CCC2(C)C`
stdout: 6.86

stdin: Same thing, different molecule: `C=C(c1ccc(C(=O)O)cc1)c1cc2c(cc1Cl)C(C)(C)CCC2(C)C`
stdout: 7.57

stdin: Same thing, different molecule: `C=C(c1ccc(C(=O)O)cc1)c1ccc2c(c1)C(C)(C)CCC2(C)C`
stdout: 6.82

stdin: Same thing, different molecule: `C=C(c1ccc(C(=O)O)cc1)c1cc2c(cc1OC)C(C)(C)CCC2(C)C`
stdout: 7.02

stdin: Same thing, different molecule: `C=C(c1ccc(C(=O)O)cc1)c1cc2c(cc1CC)C(C)(C)CCC2(C)C`
stdout: 7.51

stdin: Same thing, different molecule: `C=C(c1ccc(C(=O)O)cc1)c1cc2c(cc1O)C(C)(C)CCC2(C)C`
stdout: 6.31

stdin: Same thing, different molecule: `CC(C)c1cc2c(cc1C(=O)c1ccc(C(=O)O)cc1)C(C)(C)CCC2(C)C`
stdout: 6.95

stdin: Same thing, different molecule: `C=C(c1ccc(C(=O)O)cc1)c1cc2c(cc1Br)C(C)(C)CCC2(C)C`
stdout: 7.55

---

These compounds were tested on Retinoic acid receptor RXR-alpha (Homo sapiens, UniProt P19793); log10 EC50 is the recorded read-out.
Scale type: logarithmic (base 10). Underlying EC50 unit: nM.

Worked cases, answers included:
INPUT SMILES | MEASUREMENT TARGET | log10 EC50
C=C(c1ccc(C(=O)O)cc1)c1cc2c(cc1Br)C(C)(C)CCC2(C)C | Retinoic acid receptor RXR-alpha (Homo sapiens, UniProt P19793) | 1.71
CC1(C)CCC(C)(C)c2cc(C(=O)c3ccc(C(=O)O)cc3)c(Br)cc21 | Retinoic acid receptor RXR-alpha (Homo sapiens, UniProt P19793) | 2.52
C=C(c1ccc(C(=O)O)cc1)c1cc2c(cc1F)C(C)(C)CCC2(C)C | Retinoic acid receptor RXR-alpha (Homo sapiens, UniProt P19793) | 2.29
C=C(c1ccc(C(=O)O)cc1)c1cc2c(cc1CC)C(C)(C)CCC2(C)C | Retinoic acid receptor RXR-alpha (Homo sapiens, UniProt P19793) | 2.06
CC1(C)CCC(C)(C)c2cc(C(=O)c3ccc(C(=O)O)cc3)c(Cl)cc21 | Retinoic acid receptor RXR-alpha (Homo sapiens, UniProt P19793) | 2.47
COc1cc2c(cc1C(=O)c1ccc(C(=O)O)cc1)C(C)(C)CCC2(C)C | Retinoic acid receptor RXR-alpha (Homo sapiens, UniProt P19793) | 3.31

stdin: log10 EC50 of `CC1(C)CCC(C)(C)c2cc(C(=O)c3ccc(C(=O)O)cc3)c(F)cc21` on Retinoic acid receptor RXR-alpha (Homo sapiens, UniProt P19793)?
stdout: 3.26

stdin: Same thing, different compound: `C=C(c1ccc(C(=O)O)cc1)c1ccc2c(c1)C(C)(C)CCC2(C)C`
stdout: 2.61

stdin: Same thing, different compound: `CCc1cc2c(cc1C(=O)c1ccc(C(=O)O)cc1)C(C)(C)CCC2(C)C`
stdout: 2.71

stdin: Same thing, different compound: `C=C(c1ccc(C(=O)O)cc1)c1cc2c(cc1C(C)C)C(C)(C)CCC2(C)C`
stdout: 2.32
